// self-cleavage lookup, one value per entry
B1: HDV Ribozyme (parent)
chain: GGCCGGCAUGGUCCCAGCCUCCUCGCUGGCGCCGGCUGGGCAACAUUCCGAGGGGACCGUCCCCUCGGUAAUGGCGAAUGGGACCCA

# Variants of: B1
# Assay Overview: self-cleavage, relative activity (ratio to wild type); higher = more cleavage; co-transcriptional
API note: the answer field is a bare number with no unit suffix.

Exercise: What value of self-cleavage has been reported for the following variant? C21A G54U
Solution: 0.0773
